# testedOn: T1, GFP-9S library array, motif 4 ND N98M;D124H (synthetic construct, N98M;D124H)
# T1 chain: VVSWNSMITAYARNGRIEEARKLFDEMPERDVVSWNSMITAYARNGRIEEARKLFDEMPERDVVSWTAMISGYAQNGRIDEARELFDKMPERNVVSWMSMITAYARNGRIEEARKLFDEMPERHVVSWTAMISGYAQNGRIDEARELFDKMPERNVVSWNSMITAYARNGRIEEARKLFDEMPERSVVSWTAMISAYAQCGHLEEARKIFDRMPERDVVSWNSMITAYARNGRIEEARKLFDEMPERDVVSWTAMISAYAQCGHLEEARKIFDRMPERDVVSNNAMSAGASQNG
# experimentNotes: high-throughput RNA pulldown from lysate on Ni-NTA beads; HRP: 50 mM Tris pH 8, 150 mM NaCl, 1 mM beta-mercaptoethanol, 50 ug/ml BSA, 3 ug/ml yeast RNA, 0.5% heparin; ITC and FP: Tris pH 8, 200 mM KCl, 5% glycerol; MST: 50 mM Tris pH 8, 200 mM NaCl, 1 mM DTT, BSA, heparin, 0.05% Tween 20
# conditionParameters: tags: N-terminal His-eGFP; label: 5' IRDye 800CW
observationType: pKd
Conceptually, pKd converts a concentration in mol/L into minus its log10.

Report pKd for AUUAAACGUGA (ssRNA) [IR-rpoA-A] please.
6.24

Others:
Report pKd for AUUAUACGUGA (ssRNA) [IR-rpoA-U] please.
6.39
